Origin of measurements: ChEMBL document CHEMBL1961873

tested on: Epidermal growth factor receptor (Homo sapiens), P00533 [L861Q]; conditions: at 1 µM
Sequence (P00533 whole entry L861Q): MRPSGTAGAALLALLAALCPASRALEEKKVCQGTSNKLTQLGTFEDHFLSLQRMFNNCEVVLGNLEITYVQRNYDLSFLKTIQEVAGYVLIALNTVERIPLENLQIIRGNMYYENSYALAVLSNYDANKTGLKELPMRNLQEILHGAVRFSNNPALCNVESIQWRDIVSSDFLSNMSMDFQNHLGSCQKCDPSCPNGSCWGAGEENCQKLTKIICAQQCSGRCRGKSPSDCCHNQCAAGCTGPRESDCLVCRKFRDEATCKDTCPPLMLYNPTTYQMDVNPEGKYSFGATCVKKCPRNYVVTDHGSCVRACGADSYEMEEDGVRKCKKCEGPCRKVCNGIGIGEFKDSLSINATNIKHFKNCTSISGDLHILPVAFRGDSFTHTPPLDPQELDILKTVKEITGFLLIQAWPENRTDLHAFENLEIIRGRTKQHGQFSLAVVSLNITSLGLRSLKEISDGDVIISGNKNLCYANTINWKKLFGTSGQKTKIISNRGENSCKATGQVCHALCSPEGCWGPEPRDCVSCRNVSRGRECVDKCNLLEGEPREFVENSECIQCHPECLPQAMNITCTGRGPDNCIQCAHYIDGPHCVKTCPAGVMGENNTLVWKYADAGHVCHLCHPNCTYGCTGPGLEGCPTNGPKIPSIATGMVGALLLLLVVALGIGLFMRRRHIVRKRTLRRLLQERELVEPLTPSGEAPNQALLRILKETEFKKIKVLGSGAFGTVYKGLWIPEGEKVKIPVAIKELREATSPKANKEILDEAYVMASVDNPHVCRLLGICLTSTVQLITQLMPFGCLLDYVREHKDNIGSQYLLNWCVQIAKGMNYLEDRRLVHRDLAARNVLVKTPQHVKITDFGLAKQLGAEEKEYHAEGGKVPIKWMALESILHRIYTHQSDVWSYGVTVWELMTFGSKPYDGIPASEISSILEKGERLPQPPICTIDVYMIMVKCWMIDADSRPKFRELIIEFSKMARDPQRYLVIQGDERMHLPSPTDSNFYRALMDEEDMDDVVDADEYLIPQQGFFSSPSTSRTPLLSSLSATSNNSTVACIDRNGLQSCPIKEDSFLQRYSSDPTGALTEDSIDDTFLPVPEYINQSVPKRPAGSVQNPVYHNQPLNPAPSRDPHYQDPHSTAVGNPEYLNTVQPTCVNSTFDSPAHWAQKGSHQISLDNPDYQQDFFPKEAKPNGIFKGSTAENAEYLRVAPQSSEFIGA
outcome_measure: inhibition (%)
Could you give me the number in %? Just the number is fine.

Data request: Returns the measured inhibition for the input compound. Input: Cc1ccc(-c2cc3c(NC(=O)C4CC4)ncnc3o2)cc1
Data returned: 4.69

Data request: How about CC(C)c1ccc(-c2cc(-c3c[nH]nc3-c3ccccn3)ccn2)cc1 ?
Data returned: -0.98

Data request: Try this compound too: c1cnn2ncc(-c3ccnc(NCCCN4CCOCC4)n3)c2c1
Data returned: 0.79

Data request: CC1=C(C(=O)Nc2ccc3[nH]ncc3c2)C(c2ccc(F)cc2)N=C(c2ccc(C(F)(F)F)nc2)N1 (stereo not drawn) , same question.
Data returned: 2.72

Data request: N#Cc1ccc2c(-c3ccnc(NC4CC4)n3)c(-c3ccc(F)cc3)nn2c1 ?
Data returned: 12.9

Data request: Then CCS(=O)(=O)c1ccc(OC)c(Nc2ncc(-c3cccc(F)c3)o2)c1 ?
Data returned: 8.2

Data request: Then what about the compound CCOc1ccc2c(-c3ccnc(Nc4cc(OC)cc(C(F)(F)F)c4)n3)cnn2n1 ?
Data returned: 2.39

Data request: What about this compound? COc1cccc(Nc2nccc(-c3cnn4ncccc34)n2)c1
Data returned: 3.56

Data request: Now try CC1=C(C(=O)Nc2ccc3[nH]nc(C)c3c2)C(c2ccc(C(F)(F)F)cc2)CC(=O)N1 (stereo not drawn) .
Data returned: 1.92

Data request: Entry Cn1c(-c2nonc2N)nc2cnccc21 please
Data returned: 4.3

Data request: Next up: CNC(=O)c1sc(-n2cnc3cc(OC)c(OC)cc32)cc1OCc1ccccc1C(F)(F)F
Data returned: 1.23

Data request: Further, for CS(=O)(=O)CCNCc1ccc(-c2ccc3ncnc(Nc4ccc(OCc5cccc(C(F)(F)F)c5)cc4)c3c2)o1 ?
Data returned: 34.4

Data request: Proceed to O=C(Nc1n[nH]c2nnc(-c3cccnc3)cc12)C1CC1
Data returned: -0.99

Data request: Would you mind doing CCn1c(-c2nonc2N)nc2cncc(C(=O)NCCNC)c21 as well?
Data returned: 2.21

Data request: Lookup CCCNc1cccc(-n2ncc3c(N/N=C/c4ccncc4)ncnc32)c1
Data returned: 31.4

Data request: Now this one: CCN1CCC(C(=O)Nc2n[nH]c3nnc(-c4cccc(F)c4F)cc23)CC1
Data returned: -0.76

Data request: Queued: FC(F)(F)CNc1nccc(-c2cnn3ncccc23)n1
Data returned: 0.31

Data request: Ok, now NS(=O)(=O)c1ccc(N/N=C2\C(=O)Nc3cccc(CCc4ccncc4)c32)cc1
Data returned: 0.15

Data request: And the next one, NS(=O)(=O)c1cccc(N/C=C2\C(=O)Nc3ccccc32)c1 ?
Data returned: 2.32

Data request: Item: CNC(=O)c1ncccc1Nc1nc(Nc2cc3c(cc2OC)CCCN3C(=O)CN(C)C)nc2[nH]ccc12
Data returned: 7.78

Data request: Can you check NC(=O)c1ccc2c(-c3ccnc(NCCCO)n3)c(-c3ccc(F)cc3)nn2c1 next?
Data returned: 16.6

Data request: Further, for OCCCNc1nccc(-c2c(-c3ccc(F)cc3)nn3cc(C(F)(F)F)ccc23)n1 ?
Data returned: 6.62

Data request: Then O=C(O[C@H]1CN[C@H](C#Cc2cc3ncnc(Nc4ccc(OCc5cccc(F)c5)c(Cl)c4)c3s2)C1)N1CCOCC1 ?
Data returned: 75.2

Data request: // next record Fc1ccc(Nc2nccc(-c3c(-c4ccc(C(F)(F)F)cc4)nn4ncccc34)n2)cc1F
Data returned: -0.05

Data request: Likewise for COc1ccc2ncn(-c3cc(O[C@H](C)c4ccccc4C(F)(F)F)c(C(N)=O)s3)c2c1 ?
Data returned: 0.54

Data request: // next record COc1cc2c(cc1Nc1nc(Nc3cccc(F)c3C(N)=O)c3cc[nH]c3n1)N(C(=O)CN1CCN(C(C)C)CC1)CC2
Data returned: 13.7

Data request: Again, but for CS(=O)(=O)CCNCc1ccc(-c2ccc3ncnc(Nc4ccc(OCc5ccccc5)cc4)c3c2)o1
Data returned: 55.7

Data request: Moving on to the next compound: Cc1nnc(-c2cccc(-c3ccc(C(=O)NCC4CC4)cc3)c2)o1
Data returned: 5.65
